Exercise: for every item that follows, state its recorded growth.
# Tested on: MOLT-4 leukemia
# Assay name: NCI-60 one-dose screen, 48 h (100 = growth as untreated, 0 = no growth, -100 = all killed)
# Condition context: 10 µM unless noted
Compounds without any hit were thinned out: in the full panel of roughly 83,000, 20% have a hit.
Answers are plain numbers, in %.

CC1=C(SCCC(=O)OC(C[Se]C2=C(C)C(=O)c3ccccc3C2=O)C(=O)NC(C)(C)C)C(=O)c2ccccc2C1=O (stereo not given) = 13.1
CCc1cccc2c1S/C(=C/c1ccc(Cl)cc1)C2=O = 88.8
COc1ccc(-c2cnc3ccccc3n2)cc1 = 103
O=C(/C=C/c1cccc2ccccc12)c1ccc(NC(=O)c2ccccc2CN2C(=O)c3ccccc3C2=O)cc1 = 51.2
CN1CCN(c2ccc(-c3ccc4ncc(C#N)c(Nc5ccc(F)c(Cl)c5)c4c3)cn2)CC1 = 38.2

For every item in the list below, what is its measured growth?
1. CSc1ncccc1C(=O)OCC(=O)Nc1oc(C)c2c(C)n[nH]c(=O)c12
2. COc1cccc(Cc2nn3cc(-c4ccccc4)nc3s2)c1
3. Cc1nn(-c2ccccc2)c(-n2ccnc2)c1/C=N/Nc1nc(-c2ccc(F)cc2)cs1
4. COc1nc2ccccc2cc1-c1nc2c(cnn2-c2ccc(Br)cc2)c(=O)[nH]1

[out]
1: 99.4; 2: 30.1; 3: 48.3; 4: 47.7

For every item in the list below, what is its measured growth?
1. COc1cccc(/C=C2\C=C(c3ccccc3)N(Cc3ccccc3)C2=O)c1
2. COc1ccc(C(=O)COC(=O)[C@H](C[Se][Se]C[C@H](NC(=O)c2ccc(Br)cc2F)C(=O)OCC(=O)c2ccc(OC)cc2)NC(=O)c2ccc(Br)cc2F)cc1
3. Cc1cc2nc3cc(C)c(N)cc3[n+](-c3ccccc3)c2cc1N
4. CC(C)n1cnc2c(Nc3cccc(Cl)c3)nc(N[C@H]3CCCC[C@@H]3N)nc21
5. C#C[C@]1(O)CC[C@H]2[C@@H]3CC=C4c5sc(Nc6ccccc6)nc5CC[C@]4(C)[C@H]3CC[C@@]21C
6. O=C(Cc1ccc2c(c1)OCCO2)Nc1nc2ccc(F)cc2s1

[out]
1: 59.1; 2: -1.84; 3: 52.8; 4: 7.51; 5: 7.73; 6: 95.1

----------
# Tested on: T-47D breast
# Assay name: NCI-60 one-dose screen, 48 h (100 = growth as untreated, 0 = no growth, -100 = all killed)
# Condition context: 10 µM unless noted
Compounds without any hit were thinned out: in the full panel of roughly 83,000, 20% have a hit.
Exercise: for every item that follows, state its recorded growth.
One number for each entry, in %.

Some entries whose results are on file:
CN1C(=O)N(C)C2Nn3c(s/c(=C\c4ccccc4)c3=O)=NC21 (stereo not given) = 98.2
CCCCOc1nc2c(C)cccc2cc1-c1cc(-c2ccc(Cl)cc2)nc(-c2ccc(Cl)cc2)c1 = 99
COc1ccc2c(c1OC)C(=O)O[C@H]2[C@H]1c2c(cc3c(c2OC)OCO3)CCN1C = 109
COc1cc(C(=O)c2cnc(-c3cccc4[nH]ccc34)[nH]2)cc(OC)c1OC = 70.6

[in] Provide growth value for the following compound: c1cc2nc(-c3cn[nH]c3)c3c(c2cc1-c1cn[nH]c1)C1CCC3C1 (stereo not given)
[out] 37.6

----------
# System: SF-268 CNS
# Assay name: NCI-60 one-dose screen, 48 h
# Condition context: 10 µM unless noted
Compounds without any hit were thinned out: in the full panel of roughly 83,000, 20% have a hit. Activity calls are given as the source filed them. Rule for the calls: active = growth percent below 10; inactive = the rest.
A correct response names exactly one class from yes (active), no (inactive)

CCOC(=O)Nc1ccc(C(=O)/C=C/c2ccccc2)cc1 = no

[in] Outcome logged for `CCCCOc1nc2c(C)cccc2cc1-c1cc(-c2ccc(Cl)cc2)nc(-c2ccc(Cl)cc2)c1` in this assay:
[out] no

[in] Outcome logged for `O=C(N=c1oc2ccccc2cc1-c1cc2ccccc2[nH]1)Nc1ccc(Cl)cc1` in this assay:
[out] no

[in] Outcome logged for `Cc1nc2ccccc2c(/C=C/c2ccc(Cl)cc2)c1C(=O)/C=C/c1cccs1` in this assay:
[out] no

[in] Outcome logged for `COc1ccc(/C=C/c2c(C(=O)/C=C/c3ccc(C(F)(F)F)cc3)c(C)nc3ccccc23)cc1` in this assay:
[out] no

[in] Outcome logged for `COc1nc2ccccc2cc1-c1nc2c(cnn2-c2ccc(Br)cc2)c(=O)[nH]1` in this assay:
[out] no

[in] Outcome logged for CCOC(=O)C1=C(N)Oc2c(sc3c(C)cccc23)C1c1ccc(OC)cc1 (stereo not given) in this assay:
[out] no

[in] Outcome logged for `CSc1nc2ccc(C)cc2cc1/C=N/O` in this assay:
[out] no

[in] Outcome logged for `O=c1c2cc(F)ccc2sc2c(NCCCNCCO)nc3ccccc3c12` in this assay:
[out] no

----------
Exercise: for every item that follows, state its recorded growth.
# System: UACC-257 melanoma
# Assay name: NCI-60 one-dose screen, 48 h (100 = growth as untreated, 0 = no growth, -100 = all killed)
# Condition context: 10 µM unless noted
# Description: Cells are grown in 96 well plates and exposed to the test compound for 48 hours. Compounds are tested at a single concentration, which is 10^-5 M for most compounds. The reported endpoint is percent growth (GI% or GIPRCNT), where numbers from 0 - 100% represent growth inhibition, and numbers from -100% - 0 represent cell death. For example, a value of 40 represents 60% growth inhibition. A value of 0 means no net growth occurred over the course of the experiment. […]
About 83,000 compounds went through this panel and 20% of them were active in at least one assay; those are over-represented in the sample as a whole.
One number for each entry, in %.

Some entries whose results are on file:
C[C@]12CC[C@@H]3c4cc(OC(F)F)c(OS(N)(=O)=O)cc4CC[C@H]3[C@@H]1CC[C@@H]2O = 67.4
Cc1ccc(/C=N\NC(=O)c2[nH]c3ccc(F)cc3c2-c2ccccc2)cc1 = 59.7
N#Cc1c(-c2ccc(Cl)cc2)nc2c(c(-c3ccccc3)nn2-c2ccccc2)c1-c1ccc(O)cc1 = 85.2

For every item in the list below, what is its measured growth?
1. CCCCOc1nc2ccc(OC)cc2cc1-c1cc(-c2ccc(Cl)cc2)nc(-c2ccc(Cl)cc2)c1
2. O=C(/C=C/c1sc(Cl)nc1Cl)c1ccc(Br)cc1

[out]
[99.6, 98.3]

----------
# Tested on: SF-295 CNS
# Assay name: NCI-60 one-dose screen, 48 h
# Condition context: 10 µM unless noted
Compounds without any hit were thinned out: in the full panel of roughly 83,000, 20% have a hit. Activity calls are given as the source filed them. The calls were made as follows: active = growth percent below 10; inactive = the rest.
A correct response names exactly one class from 1 for active, 0 for inactive

Worked set:
CCCCn1c(=O)c(-c2cc(-c3ccc(Cl)cc3)nc(-c3ccc(Cl)cc3)c2)cc2cc(Cl)ccc21 = 0
COc1ccc(C2NC(=O)C(C#N)c3c2sc2c(F)cccc32)c(OC)c1 (stereo unspecified) = 0
C[C@H]1[C@H]2[C@H]3CC[C@@H]4[C@@]5(C)CC[C@H](O)C(C)(C)[C@@H]5CC[C@@]4(C)[C@]3(C)CC[C@]23CO[C@]1(C)[C@@H](C(=O)/C=C\c1cccnc1)C3 = 0

[in] Outcome logged for `O=C(Nn1c(NCC(=O)N2c3ccccc3Sc3ccccc32)nnc1-c1ccc(O)cc1)c1ccccc1` in this assay:
[out] 0

[in] Outcome logged for COc1c(C2CC(=O)Nc3c2c(C)nn3-c2nc3ccccc3[nH]2)cc2c(c1OC)OCO2 (stereo unspecified) in this assay:
[out] 0

[in] Outcome logged for `Cc1ccc2nc(NC(=O)CSc3nc(Cl)c(C#N)c(-c4ccccc4)n3)sc2c1` in this assay:
[out] 0

[in] Outcome logged for CNc1nc2c(s1)C(c1cccc(F)c1)CC(=O)N2 (stereo unspecified) in this assay:
[out] 0

----------
# Tested on: HOP-92 NSCLC
# Assay name: NCI-60 one-dose screen, 48 h (100 = growth as untreated, 0 = no growth, -100 = all killed)
# Condition context: 10 µM unless noted
Compounds without any hit were thinned out: in the full panel of roughly 83,000, 20% have a hit.
Recorded endpoint: growth (%)
Answers are plain numbers, in %.

For every item in the list below, what is its measured growth?
1. COc1ccc(C(=S)N2CCN(c3cccc(C)c3)CC2)cc1OC
2. COc1cc2cc(Oc3ccc(NC(=O)Nc4ccc(Cl)c(Cl)c4)cc3)c(C)nc2cc1OCCN1CCOCC1
3. O=[N+]([O-])c1ccc(Oc2nc(Nc3ccc(O[C@H]4CO[C@H]5[C@@H]4OC[C@@H]5O)c(Cl)c3)ncc2F)c(Cl)c1
4. CCOC(=O)Nc1ccc(-c2nc(-c3cccc(OC)c3)c(-c3ccnc(Br)c3)[nH]2)cc1

[out]
1. 81
2. 76.8
3. -7.77
4. 42.2
